Values were extracted from paper PMC6271825.

# System: DU145 cells
# experimentalDetails: CCK-8 in vitro cytotoxicity assay, DU145
# Format: cell-based
# particulars: DU-145; human prostate cancer cell line DU145, CCK-8, 24 h exposure, mean ± SD of three experiments
Reported IC50 values for the following molecules.

# molecule, IC50
records = [
    ("c1ccc(C2CCN(CCc3ccc(COc4ccc5c(c4)OCO5)cc3)CC2)cc1 [Compound 28]", "24.7 µM"),
    ("COc1ccc(N2CCN(CCc3ccc(COc4ccc5c(c4)OCO5)cc3)CC2)cc1 [Compound 13]", "> 50 µM"),
    ("Cc1cccc(N2CCN(CCc3ccc(COc4ccc5c(c4)OCO5)cc3)CC2)c1 [Compound 11]", "> 50 µM"),
]

For the next question, use this molecule.
**Q:** Which value of IC50 has been reported for Clc1ccccc1N1CCN(CCc2ccc(COc3ccc4c(c3)OCO4)cc2)CC1 [Compound 19] in the records?
**A:** > 50 µM

----------
Item-by-item account of IC50
# System: DU145 cells
# experimentalDetails: CCK-8 in vitro cytotoxicity assay, DU145
# Assay type: cell-based
# particulars: DU-145; human prostate cancer cell line DU145, CCK-8, 24 h exposure, mean ± SD of three experiments
Write the number in µM without appending the unit.

# molecule, targetDesc, IC50 / µM
records = [
    ("Fc1ccc(N2CCN(CCc3ccc(COc4ccc5c(c4)OCO5)cc3)CC2)c(F)c1", "DU145 cells", 26.8),
]

**Q:** So what's the measured IC50 for this one? c1ccc(CN2CCN(CCc3ccc(COc4ccc5c(c4)OCO5)cc3)CC2)cc1
**A:** 28.9

----------
# Tested on: DU145 cells
# experimentalDetails: CCK-8 in vitro cytotoxicity assay, DU145
# Format: cell-based
# particulars: DU-145; human prostate cancer cell line DU145, CCK-8, 24 h exposure, mean ± SD of three experiments
Catalogue of IC50 values

Field: example entries. Status: answers known.
# molecule, IC50
measured = [
    ("c1ccc(N2CCN(CCc3ccc(COc4ccc5c(c4)OCO5)cc3)CC2)nc1", "> 50 µM"),
    ("Cc1ccccc1N1CCN(CCc2ccc(COc3ccc4c(c3)OCO4)cc2)CC1", "> 50 µM"),
    ("N#Cc1ccc(N2CCN(CCc3ccc(COc4ccc5c(c4)OCO5)cc3)CC2)c(F)c1", "> 50 µM"),
]

Proceeding to the next compound to report its IC50.
**Q:** Would you mind telling me what IC50 value was observed for Clc1cccc(N2CCN(CCc3ccc(COc4ccc5c(c4)OCO5)cc3)CC2)c1Cl ?
**A:** > 50 µM

----------
Counter-ions that a name gives are not always drawn.
assayEndpoint: melting point

# compound, melting point
data = [
    ("Fc1ccc(N2CCN(CCc3ccc(COc4ccc5c(c4)OCO5)cc3)CC2)c(F)c1 (as salt: HCl)", "169 to 170 °C"),
    ("COc1ccc(Cl)cc1N1CCN(CCc2ccc(COc3ccc4c(c3)OCO4)cc2)CC1 (as salt: HCl)", "177 to 178 °C"),
    ("c1ccc(N2CCN(CCc3ccc(COc4ccc5c(c4)OCO5)cc3)CC2)nc1 (as salt: HCl)", "185 to 186 °C"),
    ("FC(F)(F)c1ccccc1N1CCN(CCc2ccc(COc3ccc4c(c3)OCO4)cc2)CC1 (as salt: HCl)", "171 to 172 °C"),
    ("Cc1ccc(N2CCN(CCc3ccc(COc4ccc5c(c4)OCO5)cc3)CC2)cc1 (as salt: HCl)", "184 to 185 °C"),
]

Here is another compound to look at.
**Q:** Can you look up the measured melting point of c1ccc(N2CCN(CCc3ccc(COc4ccc5c(c4)OCO5)cc3)CC2)cc1 (as salt: HCl) for me?
**A:** 195 to 196 °C
